- Species on record: Rattus norvegicus
- assay.summary: DrugMatrix - Regimen: Daily Repeat
- Assay type: toxicity, organism-based, Sprague-Dawley
- Set-up: regimen Daily Repeat, gender Male, age 6-8 weeks
- particulars: in vivo, po, 0 mg/kg, 72 h, tissue Plasma, route oral GAVAGE, dose level Control, time 3 day, vehicle 100 % WATER
Assign class by CARBON DIOXIDE: not lower than 30 mmol/L means 1.0; lower than 30 mmol/L means 0.0.

molecule | class.label
Cn1cc[nH]c1=S | 1.0
CC(O)CO (stereo not given) | 0.0
C[C@](N)(Cc1ccc(O)c(O)c1)C(=O)O | 0.0

Proceed to the following item.
[in] Does CN(C)CCCN1c2ccccc2Sc2ccc(Cl)cc21 have a reported CARBON DIOXIDE of at least 30 mmol/L?
[out] 1.0

* * *

- Organism: Rattus norvegicus
- assay.summary: DrugMatrix - Regimen: Daily Repeat
- Format: toxicity, organism-based, Sprague-Dawley
- Parameters: regimen Daily Repeat, gender Male, age 6-8 weeks
- particulars: in vivo, po, 0 mg/kg, 72 h, tissue Blood, route oral GAVAGE, dose level Control, time 3 day, vehicle .5 % CMC
observed.property: ABSOLUTE MONOCYTE (CELLS/uL)
Numbers only, in CELLS/uL.

compound | units.label | recorded.result
Cc1ccc(/N=C/N(C)/C=N/c2ccc(C)cc2C)c(C)c1 [AMITRAZ] | CELLS/uL | 160.33
ClC(Cl)Br [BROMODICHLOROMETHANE] | CELLS/uL | 1013.83
CC(C)(C)NC(=O)[C@@H]1C[C@@H]2CCCC[C@@H]2CN1C[C@@H](O)[C@H](Cc1ccccc1)NC(=O)[C@H](CC(N)=O)NC(=O)c1ccc2ccccc2n1 | CELLS/uL | 0
CCCN1C[C@H](CSC)C[C@@H]2c3cccc4[nH]cc(c34)C[C@H]21 [PERGOLIDE] | CELLS/uL | 420.83
CCn1cc(C(=O)O)c(=O)c2cc(F)c(N3CCNCC3)cc21 [NORFLOXACIN] | CELLS/uL | 160.33

Value sought for every listed compound: ABSOLUTE MONOCYTE.
1. CN1CCN(CCCN2c3ccccc3Sc3ccc(Cl)cc32)CC1 [PROCHLORPERAZINE]
2. COc1nc(C)nc(Cl)c1N=C1NCCN1 [MOXONIDINE]
3. ClC(Br)Br [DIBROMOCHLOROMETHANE]

[out]
1: 85.33; 2: 138.33; 3: 1013.83

* * *

- Species: Rattus norvegicus
- assay.summary: DrugMatrix - Regimen: Daily Repeat
- Assay type: toxicity, organism-based, Sprague-Dawley
- Design: regimen Daily Repeat, gender Male, age 6-8 weeks
- particulars: in vivo, po, 0 mg/kg, 120 h, tissue Blood, route oral GAVAGE, dose level Control, time 5 day, vehicle .5 % CMC
Mark Condition met only when ABSOLUTE EOSINOPHIL stays strictly below 30 CELLS/uL. Values equal to the cut-off are Condition not met.

molecule | class.label
COc1nc(C)nc(Cl)c1N=C1NCCN1 [MOXONIDINE] | Condition not met
ClC(Br)Br [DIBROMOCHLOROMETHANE] | Condition met
CCn1cc(C(=O)O)c(=O)c2cc(F)c(N3CCNCC3)cc21 [NORFLOXACIN] | Condition met
CN1CCN(CCCN2c3ccccc3Sc3ccc(Cl)cc32)CC1 [PROCHLORPERAZINE] | Condition met

Could you now look at the following molecule, please?
[in] Quick check: does CCCN1C[C@H](CSC)C[C@@H]2c3cccc4[nH]cc(c34)C[C@H]21 [PERGOLIDE] have ABSOLUTE EOSINOPHIL under 30 CELLS/uL?
[out] Condition not met

* * *

- Species: Rattus norvegicus
- assay.summary: DrugMatrix - Regimen: Daily Repeat
- Assay type: toxicity, organism-based, Sprague-Dawley
- Set-up: regimen Daily Repeat, gender Male, age 6-8 weeks
- particulars: in vivo, po, 0 mg/kg, 72 h, tissue Blood, route oral GAVAGE, dose level Control, time 3 day, vehicle 100 % WATER
I'd appreciate it if you could supply NEUTROPHIL values for the items below.
One number for each entry, in %.

Observe how each entry below is paired with its result.
compound.structure | recorded.result
Cc1onc(-c2ccccc2Cl)c1C(=O)N[C@@H]1C(=O)N2[C@@H]1SC(C)(C)[C@@H]2C(=O)O | 7.17
N[C@@H](Cc1ccc(O)c(O)c1)C(=O)O | 8.33
C[C@](N)(Cc1ccc(O)c(O)c1)C(=O)O | 10.5
NCCCCCC(=O)O | 7.17

The value of NEUTROPHIL measured for the compound Cn1cc[nH]c1=S turned out to be 9.17

* * *

- Species on record: Rattus norvegicus
- assay.summary: DrugMatrix - Regimen: Daily Repeat
- Type: toxicity, organism-based, Sprague-Dawley
- Set-up: regimen Daily Repeat, gender Male, age 6-8 weeks
- particulars: in vivo, po, 0 mg/kg, 120 h, tissue Blood, route oral GAVAGE, dose level Control, time 5 day, vehicle 100 % WATER
Answer each item with its documented MEAN CORPUSCULAR VOLUME.
Answers are plain numbers, in fL.

Worked cases, answers included:
compound.structure | observed.property | units.label | recorded.result
C[C@H]1c2cccc(O)c2C(=O)C2=C(O)[C@]3(O)C(=O)C(C(N)=O)=C(O)[C@@H](N(C)C)[C@@H]3[C@@H](O)[C@@H]21.O | MEAN CORPUSCULAR VOLUME | fL | 63.15
c1ccc([C@H]2CN3CCSC3=N2)cc1 | MEAN CORPUSCULAR VOLUME | fL | 62.28

Data point: CN(C)CCCN1c2ccccc2Sc2ccc(Cl)cc21 ; MEAN CORPUSCULAR VOLUME = 63.9

* * *

- Species on record: Rattus norvegicus
- assay.summary: DrugMatrix - Regimen: Daily Repeat
- Assay type: toxicity, organism-based, Sprague-Dawley
- Design: regimen Daily Repeat, gender Male, age 6-8 weeks
- particulars: in vivo, po, 0 mg/kg, 120 h, tissue Blood, route oral GAVAGE, dose level Control, time 5 day, vehicle .5 % CMC
observed.property: NEUTROPHIL (%)
Give bare numbers, in %.

compound | observed.property | recorded.result
COc1nc(C)nc(Cl)c1N=C1NCCN1 | NEUTROPHIL | 8.67
NC1=NC(=O)C(c2ccccc2)O1 (stereo not given) | NEUTROPHIL | 11.5

Kindly give each listed record's NEUTROPHIL.
1. Cc1nc2n(c(=O)c1CCN1CCC(c3noc4cc(F)ccc34)CC1)CCCC2
2. O=C(CCCN1CC=C(n2c(=O)[nH]c3ccccc32)CC1)c1ccc(F)cc1
3. ClC(Cl)Br
4. C1CCC(C(CC2CCCCN2)C2CCCCC2)CC1 (stereo not given)
5. CCn1cc(C(=O)O)c(=O)c2cc(F)c(N3CCNCC3)cc21

[out]
[11, 14.05, 12.67, 16.14, 6.67]

* * *

- Organism: Rattus norvegicus
- assay.summary: DrugMatrix - Regimen: Daily Repeat
- Assay type: toxicity, organism-based, Sprague-Dawley
- Parameters: regimen Daily Repeat, gender Male, age 6-8 weeks
- particulars: in vivo, po, 0 mg/kg, 120 h, tissue Plasma, route oral GAVAGE, dose level Control, time 5 day, vehicle .5 % CMC
observed.property: CREATININE
Record the result as number plus unit.

compound | CREATININE
COc1nc(C)nc(Cl)c1N=C1NCCN1 [MOXONIDINE] | 0.21 mg/dL
C1CCC(C(CC2CCCCN2)C2CCCCC2)CC1 (stereo unspecified) [PERHEXILINE] | 0.47 mg/dL
CC(C)(C)NC(=O)[C@@H]1C[C@@H]2CCCC[C@@H]2CN1C[C@@H](O)[C@H](Cc1ccccc1)NC(=O)[C@H](CC(N)=O)NC(=O)c1ccc2ccccc2n1 | 0.37 mg/dL
ClC(Cl)Br [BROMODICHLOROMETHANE] | 0.18 mg/dL
OCCN(CCO)c1nc(N2CCCCC2)c2nc(N(CCO)CCO)nc(N3CCCCC3)c2n1 [DIPYRIDAMOLE] | 0.53 mg/dL

Please find the next compound below.
// recorded CREATININE for ClC(Br)Br [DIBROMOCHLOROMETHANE] : 0.18 mg/dL

* * *

- Species: Rattus norvegicus
- assay.summary: DrugMatrix - Regimen: Daily Repeat
- Assay type: toxicity, organism-based, Sprague-Dawley
- Set-up: regimen Daily Repeat, gender Male, age 6-8 weeks
- particulars: in vivo, po, 0 mg/kg, 72 h, tissue Plasma, route oral GAVAGE, dose level Control, time 3 day, vehicle 100 % WATER
Record form. Attribute: TOTAL BILIRUBIN. Fill in for each entry.
Give bare numbers, in mg/dL.

Illustrative cases are given below, each with its answer.
molecule | TOTAL BILIRUBIN [mg/dL]
CNNCc1ccc(C(=O)NC(C)C)cc1 | 0.18
C[C@H]1c2cccc(O)c2C(=O)C2=C(O)[C@]3(O)C(=O)C(C(N)=O)=C(O)[C@@H](N(C)C)[C@@H]3[C@@H](O)[C@@H]21.O | 0.15
CN(C)CCCN1c2ccccc2Sc2ccc(Cl)cc21 | 0.2
C=CCC1(C(C)CCC)C(=O)NC(=O)NC1=O (centres undefined) | 0.18
Cc1onc(-c2ccccc2Cl)c1C(=O)N[C@@H]1C(=O)N2[C@@H]1SC(C)(C)[C@@H]2C(=O)O | 0.2
Cn1cc[nH]c1=S | 0.2

Parameters: items (list). Returns: TOTAL BILIRUBIN for each item.
1. C[C@H](CS)C(=O)N1CCC[C@H]1C(=O)O
2. Clc1cccc(Cl)c1N=C1NCCN1
3. C[C@](N)(Cc1ccc(O)c(O)c1)C(=O)O

[out]
1: 0.2; 2: 0.18; 3: 0.13
